Tested System: EPIC
Assay Text: Fluorescence anisotropy of fluorescent ligands binding to EPIC
Test Context: [ligand] = 50 nM; 1:1 binding model
Where a name gives a salt, the structure may show the parent alone.
Quantity: Kd (µM)
Numbers only, in µM.

These recorded examples may help you get a feel for the data.
CC[C@@]1(O)C(=O)OCc2c1cc1n(c2=O)Cc2cc3ccccc3nc2-1 [camptothecin, Camptothecin] : 90
CC[C@@]1(O)C(=O)OCc2c1cc1n(c2=O)Cc2cc3cc4c(cc3nc2-1)OCO4 [FL118] : 6
CC[C@@]1(O)C(=O)OCc2c1cc1n(c2=O)Cc2c-1nc1cc(F)c(C)c3c1c2[C@@H](N)CC3 [exatecan, Exatecan mesylate] : 0.12

Now take the following compound into account.
INPUT: Param item = CC[C@@]1(O)C(=O)OCc2c1cc1n(c2=O)Cc2c-1nc1ccccc1c2CCNC(C)C [belotecan, Belotecan hydrochloride] ; retrieve measured Kd.
OUTPUT: 19
